src = patent US10155775B2

- Experiment Notes: Measuring pharmacokinetics parameters in rats after intragastric administration
- Type: in vivo
- Measurement Conditions: male, plasma; rat, PO, 5 mg/kg, 20% sulfobutyl-β-cyclodextrin
Listed next: entries and their corresponding Tmax.
State just the number; it will be interpreted in h.

# Sample Smiles, Tmax / h
data = [
    ("CS(=O)(=O)c1ccc2c(c1)CN([C@H]1CO[C@H](c3cc(F)ccc3F)[C@@H](N)C1)C2", 1.67),
]

Tmax lookup needed for `N[C@H]1C[C@@H](N2Cc3ccc(S(=O)(=O)C4CC4)cc3C2)CO[C@@H]1c1cc(F)ccc1F` , thanks. 2

----------
- Experiment Notes: Measuring pharmacokinetics parameters in rats after intragastric administration
- Format: in vivo
- Measurement Conditions: male, plasma; rat, PO, 5 mg/kg, 20% sulfobutyl-β-cyclodextrin
Listed next: entries and their corresponding Cmax.
State just the number; it will be interpreted in ng/mL.

# Sample Smiles, Cmax [ng/mL]
records = [
    ("CS(=O)(=O)c1ccc2c(c1)CN([C@H]1CO[C@H](c3cc(F)ccc3F)[C@@H](N)C1)C2", 4390),
]

Now consider a different molecule.
Cmax lookup needed for `N[C@H]1C[C@@H](N2Cc3ccc(S(=O)(=O)C4CC4)cc3C2)CO[C@@H]1c1cc(F)ccc1F` , thanks. 5960

----------
- Experiment Notes: Liver microsome metabolic stability (human)
- Type: in vitro ADME
- Measurement Conditions: human liver microsomes, read-out: Half Life t1/2, liver microsome metabolic stability (converted)
Listed next: entries and their corresponding half-life.
State just the number; it will be interpreted in h.

# Sample Smiles, Experimental Readout, Unit Annotation, Val
measured = [
    ("CS(=O)(=O)n1cc2c(n1)CN([C@H]1CO[C@H](c3cc(F)ccc3F)[C@@H](N)C1)C2", "half-life", "h", 4.09),
]

Now consider a different compound.
half-life lookup needed for `CS(=O)(=O)c1ccc2c(c1)CN([C@H]1CO[C@H](c3cc(F)ccc3F)[C@@H](N)C1)C2` , thanks. 4.52

----------
Listed next: entries and their corresponding half-life.
- Experiment Notes: Liver microsome metabolic stability (rat)
- Format: in vitro ADME
- Measurement Conditions: rat liver microsomes, read-out: Half Life t1/2, liver microsome metabolic stability (converted)
State just the number; it will be interpreted in h.

# Sample Smiles, half-life, h
data = [
    ("CS(=O)(=O)n1cc2c(n1)CN([C@H]1CO[C@H](c3cc(F)ccc3F)[C@@H](N)C1)C2", 21.1),
]

Now consider a different compound.
half-life lookup needed for `CS(=O)(=O)c1ccc2c(c1)CN([C@H]1CO[C@H](c3cc(F)ccc3F)[C@@H](N)C1)C2` , thanks. 8.26

----------
- Target Of Assay: CYP3A4 (Homo sapiens (Human))
- Sequence (P08684 whole entry): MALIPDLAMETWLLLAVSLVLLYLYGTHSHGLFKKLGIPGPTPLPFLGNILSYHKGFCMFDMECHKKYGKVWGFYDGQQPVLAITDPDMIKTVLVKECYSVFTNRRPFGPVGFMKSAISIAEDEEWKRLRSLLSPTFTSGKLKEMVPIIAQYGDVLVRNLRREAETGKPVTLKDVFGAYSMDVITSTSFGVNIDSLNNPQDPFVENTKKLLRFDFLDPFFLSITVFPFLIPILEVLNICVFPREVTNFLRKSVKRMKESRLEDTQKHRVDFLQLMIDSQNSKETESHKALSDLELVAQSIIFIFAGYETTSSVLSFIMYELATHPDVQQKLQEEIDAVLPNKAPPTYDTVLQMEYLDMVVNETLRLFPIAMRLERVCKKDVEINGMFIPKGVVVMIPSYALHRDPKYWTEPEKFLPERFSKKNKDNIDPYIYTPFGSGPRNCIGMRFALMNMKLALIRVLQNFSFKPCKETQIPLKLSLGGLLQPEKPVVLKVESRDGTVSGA
- Experiment Notes: IC50 of inhibiting CYP enzyme system, human liver microsomes
- Format: in vitro ADME
- Measurement Conditions: substrate Testosterone, read-out: IC50 in inhibiting CYP Enzyme System 3A4_Tes
Experimental Readout: IC50

IC50 lookup needed for CS(=O)(=O)c1ccc2c(c1)CN([C@H]1CO[C@H](c3cc(F)ccc3F)[C@@H](N)C1)C2 [Example 4] , thanks. > 25 µM

----------
- Experiment Notes: Measuring pharmacokinetics parameters in rats after intragastric administration
- Type: in vivo
- Measurement Conditions: male, plasma; rat, PO, 5 mg/kg, 20% sulfobutyl-β-cyclodextrin
Listed next: entries and their corresponding AUC(0-inf).
State just the number; it will be interpreted in ng·h/mL.

# Sample Smiles, Val
measured = [
    ("N[C@H]1C[C@@H](N2Cc3ccc(S(=O)(=O)C4CC4)cc3C2)CO[C@@H]1c1cc(F)ccc1F", 52200),
]

Now consider a different molecule.
AUC(0-inf) lookup needed for `CS(=O)(=O)c1ccc2c(c1)CN([C@H]1CO[C@H](c3cc(F)ccc3F)[C@@H](N)C1)C2` , thanks. 45600
